# procedureSummary: gradient 5% acetonitrile 3 min, to 50% in 2 min, to 85% in 15 min, held 3 min, 100 µL/min
# condition: column: Zorbax Extend-C18 2.1 x 50 mm; eluents: water / acetonitrile, 0.1% formic acid
Answer each item with its documented RP-LC retention time.
Lab book: enter the figure in s, no units written.

Form field RP-LC retention time, entry Cc1oc(C2CCN(S(=O)(=O)c3ccc(C#N)cc3)CC2)nc1C(=O)N1CCCC1 : 872

Form field RP-LC retention time, entry O=C(Cn1ncc2c(c1=O)N(CC1CC1)C(=O)CS2)NCc1ccc(F)cc1 : 750

Form field RP-LC retention time, entry CC1CN(C(=O)CSc2cn(CC(=O)N(C(C)C)C(C)C)c3ccccc23)CC(C)O1 (stereo not given) : 959

Form field RP-LC retention time, entry Cc1ccc(-n2c(N3CCCC(C(=O)NCc4ccc(C)o4)C3)nc3ccsc3c2=O)cc1 (stereo not given) : 893

Form field RP-LC retention time, entry O=C(Cc1ccc(Cl)cc1)NC1CCN(c2nnc3ccccn23)CC1 : 656

====

# procedureSummary: gradient 5% acetonitrile 3 min, to 50% in 2 min, to 85% in 15 min, held 3 min, 100 µL/min
# condition: column: Zorbax Extend-C18 2.1 x 50 mm; eluents: water / acetonitrile, 0.1% formic acid
Binary classification by RP-LC retention time, with 800 s as an inclusive lower bound for met; all other cases are not met.

Challenge: Please check the record NC(=O)c1cc[nH]c1C1CCCN(C(=O)c2cscn2)C1 (centres undefined) and state if its RP-LC retention time is at or above 800 s.
Response given: not met

Challenge: Please check the record CC(C)(C)C(=O)N1CCC(C(=O)Nc2nc3ccc(S(C)(=O)=O)cc3s2)CC1 and state if its RP-LC retention time is at or above 800 s.
Response given: not met

Challenge: Please check the record O=C(Nc1ccc(C(=O)N2CCOCC2)cc1)c1cnn2c(C(F)F)cc(-c3ccccc3)nc12 and state if its RP-LC retention time is at or above 800 s.
Response given: met

Challenge: Please check the record CCNc1nc(C)cc(N2CCN(C(=O)Nc3cc(C)cc(C)c3)CC2)n1 and state if its RP-LC retention time is at or above 800 s.
Response given: not met

Challenge: Please check the record Cc1cc(=O)n(CC(=O)Nc2cccc(C(F)(F)F)c2)c(N2CCN(c3ccccc3)CC2)n1 and state if its RP-LC retention time is at or above 800 s.
Response given: met

Challenge: Please check the record CCOC(=O)c1nc(NCC2CCN(Cc3ccccc3C)CC2)c2c(C)noc2n1 and state if its RP-LC retention time is at or above 800 s.
Response given: not met

====

# procedureSummary: gradient 5% acetonitrile 3 min, to 50% in 2 min, to 85% in 15 min, held 3 min, 100 µL/min
# condition: column: Zorbax Extend-C18 2.1 x 50 mm; eluents: water / acetonitrile, 0.1% formic acid
Answer each item with its documented RP-LC retention time.
Lab book: enter the figure in s, no units written.

Form field RP-LC retention time, entry Cc1nc(C)c(C(=O)N2CCC(Cc3noc(C4CC4)n3)C2)s1 (stereo not given) : 664

Form field RP-LC retention time, entry Cc1cccc(NC(=O)N2CCC(c3nc(C(=O)N(C)C)c(C)o3)CC2)c1C : 697

Form field RP-LC retention time, entry CC1CCCCN1S(=O)(=O)c1ccc2c(c1)CCC(=O)N2CC(=O)NCc1ccc(N(C)C)cc1 (stereo not given) : 676

Form field RP-LC retention time, entry Cc1ccccc1C(=O)NCCc1cn(CC(C)C)c2ncccc12 : 808

Form field RP-LC retention time, entry Cc1cc2c(N3CCCC(C(=O)NCc4ccccc4Br)C3)nccc2s1 (stereo not given) : 714

Form field RP-LC retention time, entry O=C(NC1CCCCC1)C1CCCN(S(=O)(=O)Cc2ccccc2Cl)C1 (stereo not given) : 967

Form field RP-LC retention time, entry O=C(NCc1cccc(Cl)c1)c1c(O)c2cccnc2n(-c2ccccc2)c1=O : 1220

Form field RP-LC retention time, entry COc1cc2ncnc(Nc3cccc(Cl)c3)c2cc1OC : 750

Form field RP-LC retention time, entry O=C(NC1CCN(c2cc(-c3ccc(F)cc3)[nH]n2)C1)c1ccc2c(c1)OCO2 (stereo not given) : 695

Form field RP-LC retention time, entry O=C(NCCCN1CCOCC1)c1nc2ccccn2c1-c1ccc(F)cc1 : 602

Form field RP-LC retention time, entry COc1ccc(-c2c(C)noc2NC(C)=O)cc1S(=O)(=O)Nc1ccccc1Cl : 783

Form field RP-LC retention time, entry CC(C)NC(=O)N1CCCCCC1c1nc(C2CC2)no1 (stereo not given) : 802

Form field RP-LC retention time, entry CC1CCN(C(=O)c2ccc(CN3C(=O)C4CCCN4C(=O)c4ccccc43)cc2)CC1 (stereo not given) : 790

Form field RP-LC retention time, entry O=C(NCCN1CCc2ccccc2C1)c1cccc2c1CCN2C(=O)C1CC1 : 640

Form field RP-LC retention time, entry CCOC(=O)c1c(S(=O)(=O)N2CCC(C(=O)Nc3cccc(Cl)c3)CC2)c(C)n(CC)c1C : 986

Form field RP-LC retention time, entry O=C(NCc1ccco1)C1CN(C(=O)c2ccccc2)CC12CCCCC2 (stereo not given) : 795

Form field RP-LC retention time, entry CCN(CC)S(=O)(=O)c1cc(-c2nnc(-c3ccccc3OC)o2)ccc1Cl : 1090

Form field RP-LC retention time, entry Cc1ccc(C2CC(=O)N(c3ccc(F)c(F)c3)C(=O)C2)cc1 : 997

Form field RP-LC retention time, entry O=S(=O)(c1ccc(-c2noc(-c3cccc(Br)c3)n2)cc1)N1CCCC1 : 1290

Form field RP-LC retention time, entry Cc1ccc(N2CC(c3noc(-c4ccc5ccccc5n4)n3)CC2=O)cc1 (stereo not given) : 899

====

# procedureSummary: gradient 5% acetonitrile 3 min, to 50% in 2 min, to 85% in 15 min, held 3 min, 100 µL/min
# condition: column: Zorbax Extend-C18 2.1 x 50 mm; eluents: water / acetonitrile, 0.1% formic acid
Just a reminder that ties go to 0 (no): only RP-LC retention time strictly below 700 s counts as 1 (yes).

Challenge: Problem: For the compound CCOc1ccccc1-c1noc(-c2nnn3c2COC(c2ccc(OC)cc2)C3)n1 (stereo not given) , is RP-LC retention time under 700 s?
Response given: 0 (no)

Challenge: Problem: For the compound Cc1ccccc1-c1noc2ncnc(N3CCN(c4ccccn4)CC3)c12 , is RP-LC retention time under 700 s?
Response given: 1 (yes)

Challenge: Problem: For the compound COc1ccccc1CNS(=O)(=O)c1cc2c(s1)CCN(C(=O)C1CCC1)C2 , is RP-LC retention time under 700 s?
Response given: 0 (no)

Challenge: Problem: For the compound COc1ccc(-c2csc3nc[nH]c(=O)c23)cc1 , is RP-LC retention time under 700 s?
Response given: 1 (yes)

Challenge: Problem: For the compound CCCN(CCC)c1nc(-c2ccccc2F)nc2ccccc12 , is RP-LC retention time under 700 s?
Response given: 0 (no)

====

# procedureSummary: gradient 5% acetonitrile 3 min, to 50% in 2 min, to 85% in 15 min, held 3 min, 100 µL/min
# condition: column: Zorbax Extend-C18 2.1 x 50 mm; eluents: water / acetonitrile, 0.1% formic acid
Just a reminder that ties go to no: only RP-LC retention time strictly below 700 s counts as yes.

Challenge: Problem: For the molecule COc1ccc(Cn2cc(S(=O)(=O)N3CCCCC3)ccc2=O)cc1 , is RP-LC retention time under 700 s?
Response given: no

Challenge: Problem: For the molecule Cc1ccccc1-c1nsc(SCC(=O)NCc2ccco2)n1 , is RP-LC retention time under 700 s?
Response given: no

Challenge: Problem: For the molecule COc1cccc(C(=O)Nc2nc(-c3ccc4c(c3)NC(=O)CO4)c(C)s2)c1 , is RP-LC retention time under 700 s?
Response given: no

Challenge: Problem: For the molecule Cc1ccc(NC(=O)Cn2nc3n(c2=O)CCCCC3)cc1F , is RP-LC retention time under 700 s?
Response given: no

Challenge: Problem: For the molecule CC(C)(C)c1cc(C(=O)NC2CCCCC2)nc2ccnn12 , is RP-LC retention time under 700 s?
Response given: no

Challenge: Problem: For the molecule CCCN(C)C(=O)c1cc(=O)[nH]c2ccccc12 , is RP-LC retention time under 700 s?
Response given: yes

Challenge: Problem: For the molecule Cc1ccc2[nH]c(=O)c(CCC(=O)NCCc3ccccn3)cc2c1 , is RP-LC retention time under 700 s?
Response given: yes

Challenge: Problem: For the molecule CCc1ccccc1N(C)C(=O)C1CCCN(c2ncnc3c2nc2n3CCCCC2)C1 (stereo not given) , is RP-LC retention time under 700 s?
Response given: no

Challenge: Problem: For the molecule O=C(N[C@H]1C[C@@H]2C[C@H]1CN2S(=O)(=O)c1ccc(C(F)(F)F)cc1)c1cccnc1 , is RP-LC retention time under 700 s?
Response given: no

Challenge: Problem: For the molecule O=C(NC1CCCCC1)c1ccc(Nc2c(-c3ccccc3)nc3cnccn23)cc1 , is RP-LC retention time under 700 s?
Response given: no

Challenge: Problem: For the molecule O=C1NCCCn2cc(S(=O)(=O)Nc3ccccc3)cc21 , is RP-LC retention time under 700 s?
Response given: yes

Challenge: Problem: For the molecule O=C(C1=C(O)C(=O)N(CCCn2ccnc2)C1c1ccc(F)cc1)c1cc2ccccc2o1 (stereo not given) , is RP-LC retention time under 700 s?
Response given: yes

Challenge: Problem: For the molecule CCOc1ccc(CCNC(=O)C2CCCN(c3nccc(C)n3)C2)cc1OCC (stereo not given) , is RP-LC retention time under 700 s?
Response given: no

Challenge: Problem: For the molecule Cc1nnc(-c2cccnc2N2CCN(C(=O)CC3CCCC3)CC2)o1 , is RP-LC retention time under 700 s?
Response given: no

Challenge: Problem: For the molecule CC(C)Cn1cc(CCNC(=O)Nc2c(F)cccc2F)c2cccnc21 , is RP-LC retention time under 700 s?
Response given: no

Challenge: Problem: For the molecule COc1ccc(C(C)NC(=O)c2cn3cc(Cl)ccc3n2)cc1 (stereo not given) , is RP-LC retention time under 700 s?
Response given: no

Challenge: Problem: For the molecule Cc1ccc2c(c1)C(=O)C1(O)CCN(c3ccccc3)C1=N2 (stereo not given) , is RP-LC retention time under 700 s?
Response given: yes
